Where do these numbers come from? They come from ChEMBL document CHEMBL1136410.

# PROTOCOL DESCRIPTION: In vitro percent inhibition of […] murine endothelial cell proliferation garnered from C57BL/6 mice infected with ectotropic virus at 3 ug/mL
# Type: functional
# STUDY CONDITIONS: Mus musculus
MEASURED METRIC: inhibition at 3 µg/mL (%)

COMPOUND | MEASURED METRIC | UNIT ABBREV | VALUE REPORTED
O=C(/C=C/c1c(Cl)cccc1Cl)c1ccccc1 | inhibition at 3 µg/mL | % | 92.9
Cc1ccc(C(=O)/C=C/c2c(Cl)cccc2Cl)cc1 | inhibition at 3 µg/mL | % | 98.2
O=C(/C=C/c1ccccc1)c1ccc2ccccc2c1 | inhibition at 3 µg/mL | % | 92.2
O=C(/C=C/c1ccccc1)c1ccccc1 [CHALCONE] | inhibition at 3 µg/mL | % | 92.8
O=C(/C=C/c1ccccn1)c1ccccc1 [WR-190433] | inhibition at 3 µg/mL | % | 89.1
COc1cc(/C=C2\CCC/C(=C\c3ccc(O)c(OC)c3)C2=O)ccc1O [CYCLOVALONE] | inhibition at 3 µg/mL | % | 90.1
O=C(/C=C/c1ccccc1)/C=C/c1ccccc1 | inhibition at 3 µg/mL | % | 96.6
O=C1/C(=C/c2ccccc2)CCC/C1=C\c1ccccc1 [2,6-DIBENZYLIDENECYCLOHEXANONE] | inhibition at 3 µg/mL | % | 94.4
O=C(/C=C/c1c(Cl)cccc1Cl)/C=C/c1c(Cl)cccc1Cl | inhibition at 3 µg/mL | % | 87.1
O=C1/C(=C/c2ccccn2)CCC/C1=C\c1ccccn1 | inhibition at 3 µg/mL | % | 92.9
